Assay Details: in vitro
Settings: human
Observable: CC50 at 72 h (µg/mL)
Give the quantity in µg/mL, number only.

Challenge: I am curious: what CC50 at 72 h value has been reported for C[C@@H]1[C@H](O)[C@@H](C)/C=C/C=C/C=C/C=C/C=C/C=C/C=C/[C@H](O[C@@H]2O[C@H](C)[C@@H](O)[C@H](N)[C@@H]2O)C[C@@H]2O[C@](O)(C[C@@H](O)C[C@@H](O)[C@H](O)CC[C@@H](O)C[C@@H](O)CC(=O)O[C@H]1C)C[C@H](O)[C@H]2C(=O)O [AmB, Amphotericin B, reference compound] ?
Response given: 28.2

These data points were gathered from paper PMC6273649.
